Molecular target: T1, SulfoTyr C4 peptide (not fully specified; Y4, Y7 and Y9 sulfated (SO3); C-terminal biotin)
T1 construct: also called C4 alpha chain peptide; human sulfotyrosinylated C4 peptide
T1 peptide: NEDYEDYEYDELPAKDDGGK
Assay: ELISA, 50 nM mAb
# binding normalized to PSGL-1 per record follows

[
  {
    "BINDER": "07E07 (antibody, IgG4, V domains shown) VH: QVQLQQSGAEVKKPGASVKVSCKASGYTFTSYYMHWVRQAPGQGLEWMGIINTSSGSTKYAQRFQDRVTVTRDTSTTTVYMELNSLRSEDTAVYYCARGGRAYSGSFDNWGQGTLVTVSS VL: DVVMTQSPLSLPVTLGQPASISCRSSQSLVHRDGNTYFNWFQQRPGQSPRRLIYKVSNRDSGVPDRFSGSGSGTDFTLKISRVEAEDVGVYYCMQATHWPRTFGQGTKVEIK",
    "binding normalized to PSGL-1": 0.97
  },
  {
    "BINDER": "19I01 (antibody, V domains shown, From mouse immunisation; only variable domains given; also called 19101) VH: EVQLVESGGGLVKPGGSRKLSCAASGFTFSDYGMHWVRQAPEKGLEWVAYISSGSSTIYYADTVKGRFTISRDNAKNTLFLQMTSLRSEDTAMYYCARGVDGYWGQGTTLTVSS VL: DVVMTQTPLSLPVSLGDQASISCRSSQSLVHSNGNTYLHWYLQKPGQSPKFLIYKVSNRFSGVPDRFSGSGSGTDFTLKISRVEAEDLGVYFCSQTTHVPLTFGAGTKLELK",
    "binding normalized to PSGL-1": -0.01
  },
  {
    "BINDER": "06A07 (antibody, IgG4, V domains shown) VH: QVQLVQSGPELKNPGASVKVSCKASGYSFTNFYINWVRQAPGRGLEWVGWISPNNGNTHYARNLQGRVTMTTDTSTNTAYLELKNLRSDDTAIYFCGRSVSMGYWGQGTLVTVSS VL: LPVLTQPPSVSKGLRQTATLTCTGNSKNVGNQGAAWLQQHQGQPPKLLSYRNNNRPSGISERFSASRSGNTASLTITGLQPEDEADYYCSAWDSSLSAQVFGGGTKLTVL",
    "binding normalized to PSGL-1": 0.63
  },
  {
    "BINDER": "09D04 (antibody, IgG4, V domains shown) VH: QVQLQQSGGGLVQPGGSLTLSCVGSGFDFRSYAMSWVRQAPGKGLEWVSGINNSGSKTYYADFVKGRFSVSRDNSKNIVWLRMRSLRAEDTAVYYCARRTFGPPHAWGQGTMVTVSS VL: DVVMTQSPLSLPVTPGEPASISCRSSQSLLHSNGYTYLEWYLHKPGQSPQLLIYLGSNRASGVPDRFSGSGSGTDFTLKISRVEAEDVGVYYCMHSLHIPFTFGPGTKVDIK",
    "binding normalized to PSGL-1": 0.4
  }
]
